Target: low Km cAMP PDE, rat heart
Experiment: cAMP PDE inhibition, low Km enzyme from rat heart
Details: cAMP concentration 0.14 μM, read-out: 50% inhibitory value (I50)
Source text: The inhibitory activity of the compounds of the invention (or of compositions, e.g. culture broths, containing them) may be assayed by the method of Pichard and Thun [Journal of Biological Chemistry, 251, 5726-5737 (1976)], using a crude enzyme solution derived from rat brains as the cAMP PDE. […] From the residual radioactivity of the adenosine in the product, the inhibitory activity of the compound or composition against the cAMP PDE can be calculated as a percentage. […]

[
  {
    "molecule": "Nc1ncnc2c1ncn2C1OC2=C(C(=O)O)C(C(O)C(=O)O)OC2C1O (stereo not shown)",
    "IC50, nM": 36
  }
]

* * *

Target: high Km cAMP PDE, rat heart
Assay: cAMP PDE inhibition, high Km enzyme from rat heart
Conditions: cAMP concentration 100 μM, read-out: 50% inhibitory value (I50)
pIC50: −log10 of the molar value.
metric: pIC50

[
  {
    "molecule": "Nc1ncnc2c1ncn2C1OC2=C(C(=O)O)C(C(O)C(=O)O)OC2C1O (stereo not shown)",
    "assayed_system": "high Km cAMP PDE, rat heart",
    "numeric_readout": 6.47
  }
]

* * *

Test system: high Km cAMP PDE, rat platelets
Test: cAMP PDE inhibition, high Km enzyme from rat platelets
Format: biochemical
Conditions: cAMP concentration 100 μM, read-out: 50% inhibitory value (I50)
pIC50: −log10 of the molar value.

[
  {
    "compound": "Nc1ncnc2c1ncn2C1OC2=C(C(=O)O)C(C(O)C(=O)O)OC2C1O (stereo not shown) [griseolic acid]",
    "pIC50": 5.10
  }
]

* * *

Target: low Km cAMP PDE, rat platelets (Rattus norvegicus, UniProt Q62865)
Sequence (Q62865 whole entry): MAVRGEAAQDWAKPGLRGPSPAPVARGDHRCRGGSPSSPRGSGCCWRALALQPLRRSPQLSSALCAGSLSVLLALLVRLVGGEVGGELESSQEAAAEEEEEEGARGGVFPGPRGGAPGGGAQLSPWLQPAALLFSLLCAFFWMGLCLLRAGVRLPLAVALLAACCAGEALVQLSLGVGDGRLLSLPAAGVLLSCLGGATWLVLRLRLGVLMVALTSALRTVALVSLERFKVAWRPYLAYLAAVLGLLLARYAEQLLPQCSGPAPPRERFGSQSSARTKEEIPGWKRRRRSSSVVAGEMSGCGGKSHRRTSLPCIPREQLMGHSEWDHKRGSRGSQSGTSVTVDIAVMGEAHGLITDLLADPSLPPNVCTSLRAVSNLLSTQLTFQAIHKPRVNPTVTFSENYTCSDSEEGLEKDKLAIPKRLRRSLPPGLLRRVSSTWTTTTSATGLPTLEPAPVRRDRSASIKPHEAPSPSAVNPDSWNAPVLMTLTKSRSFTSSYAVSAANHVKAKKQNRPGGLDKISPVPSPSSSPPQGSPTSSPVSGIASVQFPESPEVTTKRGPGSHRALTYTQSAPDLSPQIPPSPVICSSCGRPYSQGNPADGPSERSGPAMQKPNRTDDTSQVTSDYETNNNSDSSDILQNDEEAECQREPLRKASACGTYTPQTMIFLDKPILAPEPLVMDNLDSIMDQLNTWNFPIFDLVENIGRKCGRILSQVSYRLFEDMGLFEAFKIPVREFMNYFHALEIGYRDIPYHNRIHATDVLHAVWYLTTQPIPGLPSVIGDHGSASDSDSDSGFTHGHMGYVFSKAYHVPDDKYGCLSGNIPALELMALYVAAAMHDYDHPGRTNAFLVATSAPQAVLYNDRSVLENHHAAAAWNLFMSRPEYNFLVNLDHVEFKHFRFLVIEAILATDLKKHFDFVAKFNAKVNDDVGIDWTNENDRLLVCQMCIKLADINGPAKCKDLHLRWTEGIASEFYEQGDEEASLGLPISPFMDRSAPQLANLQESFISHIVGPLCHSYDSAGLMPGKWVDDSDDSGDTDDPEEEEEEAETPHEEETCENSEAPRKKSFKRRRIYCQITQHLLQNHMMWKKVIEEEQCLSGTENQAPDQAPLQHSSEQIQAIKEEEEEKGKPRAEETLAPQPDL
pIC50: −log10 of the molar value.
metric: pIC50

[
  {
    "molecule": "Nc1ncnc2c1ncn2C1OC2=C(C(=O)O)C(C(O)C(=O)O)OC2C1O (stereo not shown) [griseolic acid]",
    "metric": "pIC50",
    "numeric_readout": 7.39
  }
]

* * *

Biological target: high Km cAMP PDE, rat brain
Experiment: cAMP PDE inhibition, high Km enzyme from rat brain
Details: cAMP concentration 100 μM, read-out: 50% inhibitory value (I50)
pIC50: −log10 of the molar value.

[
  {
    "compound": "Nc1ncnc2c1ncn2C1OC2=C(C(=O)O)C(C(O)C(=O)O)OC2C1O (stereo not shown) [griseolic acid]",
    "pIC50": 6.10
  }
]
